I'd appreciate it if you could supply Plant response rating (0 to 100), Wheat values for the items below.
system: wheat; test: Test C preemergence/postemergence greenhouse plant response rating 0 to 100; type: in vivo, Triticum aestivum; details: POSTEMERGENCE; Rate 1 g/ha
Just the number, please, no unit after it.

Exercise: Endpoint output: Plant response rating (0 to 100), Wheat of CCCN1C(=O)COc2cc(F)c(-c3nn4c(c3Cl)CCCC4)cc21 [Compound 32] . Value?
Solution: 10

Exercise: Sample CC(C)Oc1cc(-c2nn3c(c2Br)CCCC3)c(F)cc1Cl [Compound 38] — what was its Plant response rating (0 to 100), Wheat?
Solution: 0

Exercise: Which Plant response rating (0 to 100), Wheat is listed for CC(C)N1C(=O)COc2cc(F)c(-c3nn4c(c3Cl)CCCC4)cc21 [Compound 31] ?
Solution: 10

Exercise: Please look up its Plant response rating (0 to 100), Wheat: C#CC(C)N1C(=O)COc2cc(F)c(-c3nn4c(c3Cl)CCCC4)cc21 (stereo not shown) [Compound 50]
Solution: 0

###

Exercise: for every item that follows, state its recorded Plant response rating (0 to 100), Rape.
tested on: rape; assay: Test C preemergence/postemergence greenhouse plant response rating 0 to 100; assay type: in vivo, Brassica napus; details: Rate 16 g/ha; POSTEMERGENCE
Just the number, please, no unit after it.

Exercise: Look up Plant response rating (0 to 100), Rape: COCN1C(=O)COc2cc(F)c(-c3nn4c(c3Br)CCCC4)cc21 [Compound 67]
Solution: 90

Exercise: Given the entry C#CC(C)N1C(=O)COc2cc(F)c(-c3nn4c(c3Cl)CCCC4)cc21 (stereo not drawn) [Compound 50] , report its measured Plant response rating (0 to 100), Rape.
Solution: 50

Exercise: Looking for the measured Plant response rating (0 to 100), Rape of CC(C)COc1cc(-c2nn3c(c2Cl)CCCC3)c(F)cc1Cl [Compound 30] , can you help?
Solution: 80

###

Give measured Plant response rating (0 to 10 scale), Barley for each item. Keep answers brief.
system: barley; experiment: Test B preemergence/postemergence greenhouse plant response rating 0 to 10; format: in vivo, Hordeum vulgare; conditions: POSTEMERGENCE, Rate 50 g/ha
Returns: the value as a bare number; no unit string appended.

Exercise: Notebook: pull reported Plant response rating (0 to 10 scale), Barley for barley, entry Clc1ccc(-c2nc3n(c2Br)CCCC3)c(Cl)c1 [Compound 2]
Solution: 2

Exercise: # value lookup — system barley, readout Plant response rating (0 to 10 scale), Barley, item CC(C)N1C(=O)COc2cc(F)c(-c3nn4c(c3Cl)CCCC4)cc21 [Compound 31]
Solution: 5

Exercise: Please state recorded Plant response rating (0 to 10 scale), Barley (tested on barley) of CCS(=O)(=O)Oc1cc(-c2nn3c(c2Cl)CCCC3)c(F)cc1Cl [Compound 25]
Solution: 4

Exercise: # query: Plant response rating (0 to 10 scale), Barley | item CCCN1C(=O)COc2cc(F)c(-c3nn4c(c3Cl)CCCC4)cc21 [Compound 32] | system: barley
Solution: 5

Exercise: barley / Plant response rating (0 to 10 scale), Barley / COc1cc(-c2nn3c(c2Cl)CCCC3)c(F)cc1Cl [Compound 29] : value?
Solution: 5

Reference source for all entries: patent US6358885B1
